Measured values drawn from PubChem BioAssay AID1963450 for this set.

For each of the molecules below, state its viability, T/C.
# Test system: 556581-035-R-J1-PDC complex spheroid growth
# Experimental details: Anticancer human tumor 556581-035-R-J1-PDC patient-derived ovarian carcinoma cell line growth inhibition [Asc]
# Measurement setup: second compound 1 µM; first compound 0.1 µM; stronger effect = lower value
Please give a number only; it is taken to be in %.

Which viability, T/C is listed for CCN1CCN(Cc2ccc(Nc3ncc(F)c(-c4cc(F)c5nc(C)n(C(C)C)c5c4)n3)nc2)CC1 + CNC(C)C(=O)NC1CN(S(=O)(=O)c2cccc(S(=O)(=O)N3CCC4CCC(C(=O)NC(c5ccccc5)c5ccccc5)N4C(=O)C(NC(=O)C(C)NC)C3)c2)CCC2CCC(C(=O)NC(c3ccccc3)c3ccccc3)N2C1=O ?
56.2

Which viability, T/C is listed for Cn1ncnc1[C@H]1c2n[nH]c(=O)c3cc(F)cc(c23)N[C@@H]1c1ccc(F)cc1 + CNC(C)C(=O)NC1CN(S(=O)(=O)c2cccc(S(=O)(=O)N3CCC4CCC(C(=O)NC(c5ccccc5)c5ccccc5)N4C(=O)C(NC(=O)C(C)NC)C3)c2)CCC2CCC(C(=O)NC(c3ccccc3)c3ccccc3)N2C1=O ?
67

====

# Tested on: 556581-035-R-J1-PDC complex spheroid growth
# Experimental details: Anticancer human tumor 556581-035-R-J1-PDC cell line growth inhibition [Asc];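 further: spheroids exposed to agents for 7 days before viability read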
# Measurement setup: curve of first compound; second compound 0.1 µM
pIC50: −log10 of the molar value.
For each of the compounds below, state its pIC50.

Which pIC50 is listed for C#Cc1c(F)ccc2cc(O)cc(-c3ncc4c(N5CC6CCC(C5)N6)nc(OCC56CCCN5CC(F)C6)nc4c3F)c12 (configuration not stated) + Cc1c(S(C)(=O)=O)c(-c2cc(F)cc(N3CCN(c4ccc(NS(=O)(=O)c5ccc(NC(CCN6CCC(C(=O)OCCCP(=O)(O)O)CC6)CSc6ccccc6)c(S(=O)(=O)C(F)(F)F)c5)cc4)CC3)c2)c(-c2ccc(Cl)cc2)n1C(C)C ?
< 5.00

Which pIC50 is listed for CCN1C(C(=O)NC23CCC(C(=O)O)(CC2)CC3)C(c2cccc(Cl)c2F)C2(C(=O)Nc3cc(Cl)ccc32)C12CCCCC2 (configuration not stated) + Cc1c(S(C)(=O)=O)c(-c2cc(F)cc(N3CCN(c4ccc(NS(=O)(=O)c5ccc(NC(CCN6CCC(C(=O)OCCCP(=O)(O)O)CC6)CSc6ccccc6)c(S(=O)(=O)C(F)(F)F)c5)cc4)CC3)c2)c(-c2ccc(Cl)cc2)n1C(C)C ?
< 5.52

====

# Test system: 556581-035-R-J1-PDC complex spheroid growth
# Experimental details: Anticancer human tumor 556581-035-R-J1-PDC cell line growth inhibition [Asc];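 further: spheroids exposed to agents for 7 days before viability read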
# Measurement setup: second compound 0.316 µM; first compound 10 µM; stronger effect = lower value
Returns: string. Value is rule met if measured viability, T/C is below 60%, and rule not met if it is greater than or equal to it.

Please determine if O=C(c1cc(Cc2n[nH]c(=O)c3ccccc23)ccc1F)N1CCN(C(=O)C2CC2)CC1 + CNC(C)C(=O)NC1CN(S(=O)(=O)c2cccc(S(=O)(=O)N3CCC4CCC(C(=O)NC(c5ccccc5)c5ccccc5)N4C(=O)C(NC(=O)C(C)NC)C3)c2)CCC2CCC(C(=O)NC(c3ccccc3)c3ccccc3)N2C1=O is below 60% in terms of viability, T/C.
rule not met

Please determine if C=C(F)C(=O)N1CCN(c2nc(OCC3CCCN3C)nc3c2CCN(c2cccc4cccc(Cl)c24)C3)CC1CC#N (stereo unspecified) + CNC(C)C(=O)NC1CN(S(=O)(=O)c2cccc(S(=O)(=O)N3CCC4CCC(C(=O)NC(c5ccccc5)c5ccccc5)N4C(=O)C(NC(=O)C(C)NC)C3)c2)CCC2CCC(C(=O)NC(c3ccccc3)c3ccccc3)N2C1=O is below 60% in terms of viability, T/C.
rule met

Please determine if C#Cc1c(F)ccc2cc(O)cc(-c3ncc4c(N5CC6CCC(C5)N6)nc(OCC56CCCN5CC(F)C6)nc4c3F)c12 (stereo unspecified) + Cc1c(S(C)(=O)=O)c(-c2cc(F)cc(N3CCN(c4ccc(NS(=O)(=O)c5ccc(NC(CCN6CCC(C(=O)OCCCP(=O)(O)O)CC6)CSc6ccccc6)c(S(=O)(=O)C(F)(F)F)c5)cc4)CC3)c2)c(-c2ccc(Cl)cc2)n1C(C)C is below 60% in terms of viability, T/C.
rule not met

Please determine if C=C(F)C(=O)N1CCN(c2nc(OCC3CCCN3C)nc3c2CCN(c2cccc4cccc(Cl)c24)C3)CC1CC#N (stereo unspecified) + Cc1c(S(C)(=O)=O)c(-c2cc(F)cc(N3CCN(c4ccc(NS(=O)(=O)c5ccc(NC(CCN6CCC(C(=O)OCCCP(=O)(O)O)CC6)CSc6ccccc6)c(S(=O)(=O)C(F)(F)F)c5)cc4)CC3)c2)c(-c2ccc(Cl)cc2)n1C(C)C is below 60% in terms of viability, T/C.
rule met

Please determine if O=C(c1cc(Cc2n[nH]c(=O)c3ccccc23)ccc1F)N1CCN(C(=O)C2CC2)CC1 + Cc1c(S(C)(=O)=O)c(-c2cc(F)cc(N3CCN(c4ccc(NS(=O)(=O)c5ccc(NC(CCN6CCC(C(=O)OCCCP(=O)(O)O)CC6)CSc6ccccc6)c(S(=O)(=O)C(F)(F)F)c5)cc4)CC3)c2)c(-c2ccc(Cl)cc2)n1C(C)C is below 60% in terms of viability, T/C.
rule not met

Please determine if C=CC(=O)N1CCN(c2nc(=O)n(-c3c(C)ccnc3C(C)C)c3nc(-c4c(O)cccc4F)c(F)cc23)C(C)C1 (stereo unspecified) + Cc1c(S(C)(=O)=O)c(-c2cc(F)cc(N3CCN(c4ccc(NS(=O)(=O)c5ccc(NC(CCN6CCC(C(=O)OCCCP(=O)(O)O)CC6)CSc6ccccc6)c(S(=O)(=O)C(F)(F)F)c5)cc4)CC3)c2)c(-c2ccc(Cl)cc2)n1C(C)C is below 60% in terms of viability, T/C.
rule not met
